Quick list: Ki per entry.
- TARGET OR TEST SYSTEM: human 5-HT2A receptor (Homo sapiens (Human), UniProt P28223)
- Sequence (P28223 whole entry): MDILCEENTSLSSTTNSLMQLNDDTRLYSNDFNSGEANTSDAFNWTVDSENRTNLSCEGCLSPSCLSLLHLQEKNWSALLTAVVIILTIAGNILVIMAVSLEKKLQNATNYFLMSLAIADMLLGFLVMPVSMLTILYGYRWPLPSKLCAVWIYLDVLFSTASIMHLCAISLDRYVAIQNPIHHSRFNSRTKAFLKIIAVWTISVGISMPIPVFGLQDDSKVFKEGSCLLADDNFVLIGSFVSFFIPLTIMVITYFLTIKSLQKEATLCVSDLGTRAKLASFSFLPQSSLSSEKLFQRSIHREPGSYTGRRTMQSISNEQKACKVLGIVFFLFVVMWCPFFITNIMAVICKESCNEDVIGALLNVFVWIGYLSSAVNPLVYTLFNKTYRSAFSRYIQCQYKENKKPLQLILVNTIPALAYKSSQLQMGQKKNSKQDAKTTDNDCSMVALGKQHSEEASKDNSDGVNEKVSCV
- PROTOCOL DETAILS: Radioligand binding assay, [3H]-ketanserin, human 5-HT2A receptor
- CONDITIONS USED: membranes of HEK293 EBNA cells expressing human 5-HT2A; 1.1 nM [3H]-ketanserin
Reply numerically in nM, unit not repeated.

In the examples that follow, each entry is paired with its recorded Ki.
MOLECULE	Ki (nM)
O=C(C[C@H]1COCCO1)N[C@H]1CC[C@H](CCN2CCN(c3nccc4c3CCO4)CC2)CC1 [Example 67]	8.15
O=C(CC1CCOCC1)N[C@H]1CC[C@H](CCN2CCN(c3nccc4occc34)CC2)CC1 [Example 10]	6.1
C/C=C/CC(=O)N[C@H]1CC[C@H](CCN2CCN(c3nccc4c3CCO4)CC2)CC1 [Example 81]	22.8

(Q) Supply reported Ki belonging to this molecule: CO[C@H]1CC[C@H](CC(=O)N[C@H]2CC[C@H](CCN3CCN(c4nccc5occc45)CC3)CC2)CC1 [Example 9]
(A) 5.6
